Data origin, for the record: ChEMBL document CHEMBL5512645

test system: Klebsiella pneumoniae; experiment: Antibacterial activity against Klebsiella pneumoniae ATCC 700603 incubated for 18 to 24 hrs by broth microdilution method; assay type: functional; settings: time 18-24 hrs
Bridge positions count the residues as written; N and C are the ends. Square brackets hold non-standard residues; d marks the D form. Peptide text beside a SMILES is read from it. * marks the point of attachment. ξ: configuration not given here. Hexanoyl(4ξ-Me) = CCC(C)CCC(=O)*; dOrn = NCCC[C@@H](N)C(=O)O; Orn = NCCC[C@H](N)C(=O)O
MIC for assorted compounds

Past entries and their recorded results:
>>> result("CCC(C)CCC(=O)N[C@H](CC(N)=O)C(=O)N[C@H](Cc1ccc(O)cc1)C(=O)N[C@H](Cc1c[nH]c2ccccc12)C(=O)N[C@H](CCCN)C(=O)N[C@@H](CCCN)C(=O)NCC(=O)N[C@H](CCCN)C(=O)N[C@@H](Cc1c[nH]c2ccccc12)C(=O)N[C@@H]1C(=O)N[C@@H]([C@@H](C)CC)C(=O)NCC(=O)N[C@@H](CO)C(=O)O[C@@H]1C (stereo partly drawn) ({Hexanoyl(4ξ-Me)}-[dN][dY][dW][dOrn][Orn]G[dOrn]WTIGS; ester 9-C)")
"2 µM"
>>> result("CCCCCCCCCC(=O)N[C@H](CCCN)C(=O)N[C@H](Cc1ccc(O)cc1)C(=O)N[C@H](Cc1c[nH]c2ccccc12)C(=O)N[C@H](CCCN)C(=O)N[C@@H](CCCN)C(=O)NCC(=O)N[C@H](CCCN)C(=O)N[C@@H](Cc1c[nH]c2ccccc12)C(=O)N[C@@H]1C(=O)N[C@@H]([C@@H](C)CC)C(=O)NCC(=O)N[C@@H](CO)C(=O)O[C@@H]1C")
"16 µM"

IN: What value of MIC on Klebsiella pneumoniae does CCC(C)CCC(=O)N[C@H](CC(N)=O)C(=O)N[C@H](Cc1ccc(O)cc1)C(=O)N[C@H](Cc1c[nH]c2ccccc12)C(=O)N[C@H](CCCN)C(=O)N[C@@H](CCCN)C(=O)N[C@@H](CCCN)C(=O)N[C@H](CCCN)C(=O)N[C@@H](Cc1c[nH]c2ccccc12)C(=O)N[C@@H]1C(=O)N[C@@H]([C@@H](C)CC)C(=O)NCC(=O)N[C@@H](CO)C(=O)O[C@@H]1C (mixture of isomers) have?
OUT: 2 µM
